# Assay: Half life of the compound in 1:1 H2O:ethylalcohol containing 2.08 x 10^-3 M NaOH at 8.3 x 10^-5 M by UV-spectroscopy
# Format: physicochemical
# Assay Setup: 1:1 water:ethanol with NaOH
Observable: half-life at 83 µM

[[record]]
molecule = "NP(=O)(Oc1c(F)c(F)c(F)c(F)c1F)N(CCCl)CCCl (stereo unspecified)"
observable = "half-life at 83 µM"
assay_result = "2 min"


* * *

# Assay: Half life of the compound in 1:1 H2O:ethylalcohol containing 6.66 x 10^-3 M NaOH at 8.3 x 10^-5 M by UV-spectroscopy
# Type: physicochemical
# Assay Setup: 1:1 water:ethanol with NaOH
Observable: half-life at 83 µM (s)

[[record]]
molecule = "NP(=O)(Oc1c(F)c(F)c(F)c(F)c1F)N(CCCl)CCCl (stereo unspecified)"
quantity_unit = "s"
assay_result = 43


The measured values listed here are drawn from ChEMBL document CHEMBL3228013.
